Test system: Erythrocyte
Assay: Anticomplement activity in rabbit erythrocytes assessed as concentration required for 50% hemolytic inhibition by alternative pathway pretreated for 10 mins with normal human serum followed by erythrocyte addition measured after 30 mins by spectrophotometeric method
Format: functional, cell-based
Conditions: Oryctolagus cuniculus
IC50 vs 700 µM: less than gives 1 (yes); not less than gives 0 (no).

Here's what some known entries look like.
COc1c(O)cc2c(=O)oc3c(OC)c(O[C@@H]4OC[C@@H](O)[C@H](O)[C@H]4O)cc4c(=O)oc1c2c34; 1 (yes)
O=C(O)c1cc(O)c(O)c(O)c1 [GALLIC ACID]; 0 (no)
O=C(O)C[C@H](C(=O)O)[C@H]1c2c(cc(O)c(O)c2O)C(=O)O[C@@H]1C(=O)O; 0 (no)
CCOC(=O)c1cc(O)c(O)c(O)c1 [ETHYLGALLATE]; 0 (no)

IN: Determine if `COc1c(O)cc2c(=O)oc3c(O)c(O[C@@H]4O[C@@H](C)[C@H](O)[C@@H](O)[C@H]4O)cc4c(=O)oc1c2c34` shows IC50 strictly lower than 700 µM.
OUT: 1 (yes)

---

Tested on: Erythrocyte
Test: Anticomplement activity in rabbit erythrocytes assessed as concentration required for 50% hemolytic inhibition by alternative pathway pretreated for 10 mins with normal human serum followed by erythrocyte addition measured after 30 mins by spectrophotometeric method
Type: functional, cell-based
Details: Oryctolagus cuniculus
reported metric: IC50 (µM)
Express the result in µM but write the number alone.

O=C1C[C@@H](c2ccc(O)cc2)[C@]2(O)C(=O)O[C@@H]([C@H](O)CO)[C@H]2O1; 990

Next compound, IC50 to be filled in.
IN: Quick one: IC50 for `COc1cc(/C=C/C(=O)OCCc2ccc(O)cc2)ccc1O` ?
OUT: 1010

---

Test system: Erythrocyte
Assay: Anticomplement activity in sheep erythrocytes assessed as concentration required for 50% hemolytic inhibition by classic pathway pretreated for 10 mins with guinea pig serum followed by erythrocyte addition measured after 30 mins by spectrophotometeric method
Assay type: functional, cell-based
Conditions: Ovis aries
reported metric: IC50 (µM)
Express the result in µM but write the number alone.

// below: answered molecules
CC1(C)OC[C@H]([C@@H]2OC(=O)[C@]3(O)[C@@H]2OC(=O)C[C@H]3c2ccc(O)cc2)O1; 920
COc1cc(/C=C/C(=O)NCCc2ccc(O)cc2)ccc1O [N-TRANS-FERULOYL TYRAMINE]; 880

IN: Observed IC50 on Erythrocyte for `COc1cc([C@@H]2OC(=O)[C@@H]3[C@H]2CO[C@H]3c2ccc(O)c(OC)c2)ccc1O` , please.
OUT: 880
